System: CVI-P cells
Assay: Cytotoxicity of amphiphile/DNA complexes, percentage of survived cells
Conditions: amphiphile/DNA +/− charge ratio 8
The reader will find reported cytotoxicity as a percentage of survived cells values listed item by item below.

Some compounds with known cytotoxicity as a percentage of survived cells results, for comparison:
CCCCCCCCCCCCCCCCOC(=O)C1=C(C[n+]2ccccc2)NC(C[n+]2ccccc2)=C(C(=O)OCCCCCCCCCCCCCCCC)C1c1ccccc1.[Br-].[Br-] :: 100,65%
CCCCCCCCCCCCCCOC(=O)C1=C(C)NC(C)=C(C(=O)OCCCCCCCCCCCCCC)C1c1ccc[n+](C)c1.I.[I-] :: 7,52%
CCCCCCCCCCCCOC(=O)C1=C(C[n+]2ccccc2)NC(C[n+]2ccccc2)=C(C(=O)OCCCCCCCCCCCC)C1c1ccccc1.[Br-].[Br-] :: 42,72%
CCCCCCCCCCCCOC(=O)C1=C(C)NC(C)=C(C(=O)OCCCCCCCCCCCC)C1c1ccc[n+](C)c1.I.[I-] :: 8,67%
CCCCCCCCCCCCCCCC(=O)OCCOC(=O)C1=C(C)NC(C)=C(C(=O)OCCOC(=O)CCCCCCCCCCCCCCC)C1c1ccc[n+](C)c1.I.[I-] :: 70,75%

Item under review: CCCCCCCCCCCCCCCC(=O)OCCCOC(=O)C1=C(C)NC(C)=C(C(=O)OCCCOC(=O)CCCCCCCCCCCCCCC)C1c1ccc[n+](C)c1.I.[I-] . Reported cytotoxicity as a percentage of survived cells?
68,47%

What about this compound? CCCCCCCCCCCCCCCCOC(=O)C1=C(C)NC(C)=C(C(=O)OCCCCCCCCCCCCCCCC)C1c1ccc[n+](C)c1.I.[I-]
88,71%

What about this compound? CCCCCCCC/C=C\CCCCCCCC(=O)OCC(C[N+](C)(C)C)OC(=O)CCCCCCC/C=C\CCCCCCCC.[Cl-] (stereo not shown) [DOTAP, reference compound]
102,3%

What about this compound? CCCCCCCCCCOC(=O)C1=C(C[n+]2ccccc2)NC(C[n+]2ccccc2)=C(C(=O)OCCCCCCCCCC)C1c1ccccc1.[Br-].[Br-]
46,74%

What about this compound? CCCCCCCCCCCCCCOC(=O)C1=C(C[n+]2ccccc2)NC(C[n+]2ccccc2)=C(C(=O)OCCCCCCCCCCCCCC)C1c1ccccc1.[Br-].[Br-]
48,08%

What about this compound? CCCCCCCCCCCCCCCCOCCCOC(=O)C1=C(C)NC(C)=C(C(=O)OCCCOCCCCCCCCCCCCCCCC)C1c1ccc[n+](C)c1.[I-]
99,23%

What about this compound? Br.CCCCCCCCCCCCCCOC(=O)C1=C(C)NC(C)=C(C(=O)OCCCCCCCCCCCCCC)C1c1ccc[n+](CCCCCCCCC)c1.[Br-]
44,62%

What about this compound? Br.CCCCCCCCCCCCCCCC[n+]1cccc(C2C(C(=O)OCCCCCCCCCCCCCC)=C(C)NC(C)=C2C(=O)OCCCCCCCCCCCCCC)c1.[Br-]
97,34%

---

Test system: CVI-P cells
Assay: Cytotoxicity of amphiphile/DNA complexes, percentage of survived cells
Conditions: amphiphile/DNA +/− charge ratio 0.5
READOUT NAME: cytotoxicity as a percentage of survived cells

Some compounds with known cytotoxicity as a percentage of survived cells results, for comparison:
Br.CCCCCCCCCCCCCCCC[n+]1cccc(C2C(C(=O)OC3CC(C)CCC3C(C)C)=C(C)NC(C)=C2C(=O)OC2CC(C)CCC2C(C)C)c1.[Br-] (stereo not drawn) :: 85,15%
CCCCCCCCCCCCCCCCOC(=O)C1=C(C)NC(C)=C(C(=O)OCCCCCCCCCCCCCCCC)C1c1ccc[n+](CC(N)=O)c1.I.[I-] :: 100,59%
CCCCCCCC/C=C\CCCCCCCC(=O)OCC(C[N+](C)(C)C)OC(=O)CCCCCCC/C=C\CCCCCCCC.[Cl-] (stereo not drawn) [DOTAP, reference compound] :: 92,45%
CCCCCCCCCCCCCCCCOCCCOC(=O)C1=C(C)NC(C)=C(C(=O)OCCCOCCCCCCCCCCCCCCCC)C1c1ccc[n+](C)c1.[I-] :: 111,42%
CCCCCCCCCCCCCCCC(=O)OCCCOC(=O)C1=C(C)NC(C)=C(C(=O)OCCCOC(=O)CCCCCCCCCCCCCCC)C1c1ccc[n+](C)c1.I.[I-] :: 87,86%

Here is another compound to look at.
Form field - read-out: cytotoxicity as a percentage of survived cells; system: CVI-P cells; submitted item: CCCCCCCCCCCCOC(=O)C1=C(C[n+]2ccccc2)NC(C[n+]2ccccc2)=C(C(=O)OCCCCCCCCCCCC)C1c1ccccc1.[Br-].[Br-]
99,71%

---

System: D 407 cells
Experiment: Cytotoxicity of amphiphile/DNA complexes, percentage of survived cells
Format: cell-based, human
Design: concentration or dose not given beside the values
Conditions: amphiphile/DNA +/− charge ratio 1
The reader will find reported cytotoxicity as a percentage of survived cells values listed item by item below.

Some compounds with known cytotoxicity as a percentage of survived cells results, for comparison:
CCCCCCCCCCCCOC(=O)C1=C(C[n+]2ccccc2)NC(C[n+]2ccccc2)=C(C(=O)OCCCCCCCCCCCC)C1c1ccccc1.[Br-].[Br-] :: 87,69%
CCCCCCCCCCCCCCOC(=O)C1=C(C)NC(C)=C(C(=O)OCCCCCCCCCCCCCC)C1c1ccc[n+](C)c1.I.[I-] :: 94,43%
CCCCCCCCCCCCOC(=O)C1=C(C)NC(C)=C(C(=O)OCCCCCCCCCCCC)C1c1ccc[n+](C)c1.I.[I-] :: 66,05%
CCCCCCCCCCCCCCCC(=O)OCCOC(=O)C1=C(C)NC(C)=C(C(=O)OCCOC(=O)CCCCCCCCCCCCCCC)C1c1ccc[n+](C)c1.I.[I-] :: 80,92%
CCCCCCCCCCCCCCOC(=O)C1=C(C[n+]2ccccc2)NC(C[n+]2ccccc2)=C(C(=O)OCCCCCCCCCCCCCC)C1c1ccccc1.[Br-].[Br-] :: 88,59%
CCCCCCCC/C=C\CCCCCCCC(=O)OCC(C[N+](C)(C)C)OC(=O)CCCCCCC/C=C\CCCCCCCC.[Cl-] (centres unmarked) [DOTAP, reference compound] :: 87,48%
CCCCCCCCCCCCCCCCOC(=O)C1=C(C[n+]2ccccc2)NC(C[n+]2ccccc2)=C(C(=O)OCCCCCCCCCCCCCCCC)C1c1ccccc1.[Br-].[Br-] :: 97,73%

Item under review: CCCCCCCCCCCCCCCCOC(=O)C1=C(C)NC(C)=C(C(=O)OCCCCCCCCCCCCCCCC)C1c1ccc[n+](C)c1.I.[I-] . Reported cytotoxicity as a percentage of survived cells?
84,83%

---

System: D 407 cells
Test: Cytotoxicity of amphiphile/DNA complexes, percentage of survived cells
Type: cell-based, human
Set-up: concentration or dose not given beside the values
Details: amphiphile/DNA +/− charge ratio 4
The reader will find reported cytotoxicity as a percentage of survived cells values listed item by item below.

Some compounds with known cytotoxicity as a percentage of survived cells results, for comparison:
CCCCCCCCCCCCOC(=O)C1=C(C)NC(C)=C(C(=O)OCCCCCCCCCCCC)C1c1ccc[n+](C)c1.I.[I-] :: 9,14%
CCCCCCCCCCCCCCCCOC(=O)C1=C(C)NC(C)=C(C(=O)OCCCCCCCCCCCCCCCC)C1c1ccc[n+](C)c1.I.[I-] :: 55,53%
CCCCCCCCCCCCOC(=O)C1=C(C[n+]2ccccc2)NC(C[n+]2ccccc2)=C(C(=O)OCCCCCCCCCCCC)C1c1ccccc1.[Br-].[Br-] :: 70,23%
CCCCCCCCCCCCCCCCOC(=O)C1=C(C[n+]2ccccc2)NC(C[n+]2ccccc2)=C(C(=O)OCCCCCCCCCCCCCCCC)C1c1ccccc1.[Br-].[Br-] :: 89,12%

Here is another compound to look at.
Form field - read-out: cytotoxicity as a percentage of survived cells; system: D 407 cells; submitted item: CCCCCCCCCCCCCCOC(=O)C1=C(C[n+]2ccccc2)NC(C[n+]2ccccc2)=C(C(=O)OCCCCCCCCCCCCCC)C1c1ccccc1.[Br-].[Br-]
86,99%

---

System: D407 (human retinal pigment epithelial) cells
Experiment: In vitro transfection of plasmid DNA, β-galactosidase activity per well
Type: cell-based
Conditions: D 407; amphiphile/DNA +/− charge ratio 0.5
The reader will find reported transfection efficiency values listed item by item below.

Some molecules with known transfection efficiency results, for comparison:
CCCCCCCCCCCCCCCCOC(=O)C1=C(C[n+]2ccccc2)NC(C[n+]2ccccc2)=C(C(=O)OCCCCCCCCCCCCCCCC)C1c1ccccc1.[Br-].[Br-] :: 0,57 β-galactosidase units per well
CCCCCCCCCCCCCCOC(=O)C1=C(C)NC(C)=C(C(=O)OCCCCCCCCCCCCCC)C1c1ccc[n+](C)c1.I.[I-] :: 0,53 β-galactosidase units per well
CCCCCCCCCCCCCCOC(=O)C1=C(C[n+]2ccccc2)NC(C[n+]2ccccc2)=C(C(=O)OCCCCCCCCCCCCCC)C1c1ccccc1.[Br-].[Br-] :: 0,20 β-galactosidase units per well

Item under review: CCCCCCCCCCCCCCCC(=O)OCCOC(=O)C1=C(C)NC(C)=C(C(=O)OCCOC(=O)CCCCCCCCCCCCCCC)C1c1ccc[n+](C)c1.I.[I-] . Reported transfection efficiency?
0,83 β-galactosidase units per well

What about this molecule? CCCCCCCCCCCCOC(=O)C1=C(C[n+]2ccccc2)NC(C[n+]2ccccc2)=C(C(=O)OCCCCCCCCCCCC)C1c1ccccc1.[Br-].[Br-]
0,27 β-galactosidase units per well

What about this molecule? CCCCCCCCCCCCOC(=O)C1=C(C)NC(C)=C(C(=O)OCCCCCCCCCCCC)C1c1ccc[n+](C)c1.I.[I-]
0,26 β-galactosidase units per well

What about this molecule? CCCCCCCC/C=C\CCCCCCCC(=O)OCC(C[N+](C)(C)C)OC(=O)CCCCCCC/C=C\CCCCCCCC.[Cl-] (stereo not shown) [DOTAP, reference compound]
0,7 β-galactosidase units per well
